tested on: K-562 leukemia; experiment: NCI-60 one-dose screen, 48 h (100 = growth as untreated, 0 = no growth, -100 = all killed); conditions: 10 µM unless noted
Compounds without any hit were thinned out: in the full panel of roughly 83,000, 20% have a hit.

smiles_repr: CCOC(=O)c1c2c(n3c1NCC3)-c1ccccc1C2=O
units_symbol: %
growth: 87.3
--
smiles_repr: O=C(CCCCCCCCC(=O)N/N=C\c1cc(Cl)ccc1O)N/N=C\c1cc(Cl)ccc1O
units_symbol: %
growth: 23.7
--
smiles_repr: O=C(N/N=C/c1ccc(Cl)cc1Cl)c1ccc2nc(-c3ccc(Cl)cc3)[nH]c2c1
units_symbol: %
growth: 8.67
--
smiles_repr: CCCCCn1sc(=O)n(Cc2ccc(CNC(=O)OCc3ccc4c(Cl)cc(Cl)c(O)c4n3)cc2)c1=O
units_symbol: %
growth: 45.8
--
smiles_repr: COc1ccc2nc3ccccc3c(NCc3ccc(F)cc3)c2c1
units_symbol: %
growth: 1.95
--
smiles_repr: CCCCCCCC/C=C\CCCCCCCCOc1ccccc1CC(=O)NCC[N+]1(C)CCCCC1
units_symbol: %
growth: 36.3
--
smiles_repr: CN1CCN(CCOc2ccc(-c3cnc4c(-c5ccc(C(F)(F)F)cc5)cnn4c3)cc2)CC1
units_symbol: %
growth: -36
--
smiles_repr: COc1cc(/C=C/c2cc(/C=C/c3ccc(O)c(OC)c3)n(C(=O)Nc3ccc(F)cc3)n2)ccc1O
units_symbol: %
growth: 0.22
--
smiles_repr: CCCNc1nc2ccccc2c2c(=O)c3cccc(Cl)c3sc12
units_symbol: %
growth: 86
--
smiles_repr: O=C1CCCc2nc3sc4c(=O)n(-c5ccccc5Cl)nnc4c3cc21
units_symbol: %
growth: 102
--
smiles_repr: O=c1[nH]c(-c2ccc(Cl)cc2)cn1-c1ccc(-n2cc(-c3ccc(Cl)cc3)[nH]c2=O)cc1
units_symbol: %
growth: 113
--
smiles_repr: Cc1cc(C(=O)Nc2cc(Nc3ncccc3-c3ncnc4nc[nH]c34)ccc2F)cc(C(F)(F)F)c1
units_symbol: %
growth: 4.38
--
smiles_repr: Cc1ccc(C)n1/C=C/n1c(C)ccc1C
units_symbol: %
growth: 117
--
smiles_repr: Cc1[nH]c(C(=O)Nc2ccc(C(N)=O)cc2NC(C)C)c(Cl)c1Cl
units_symbol: %
growth: 85.8
--
smiles_repr: O=C(CCCCl)NNc1nccc(Nc2ccc(S(=O)(=O)Nc3ccncc3)cc2)n1
units_symbol: %
growth: 111
--
smiles_repr: O=C1/C(=C/c2ccc(C(F)(F)F)cc2)COc2ccc(O)cc21
units_symbol: %
growth: 5.54
--
smiles_repr: CC(C)(C)c1cc(C=Nc2cccc(C(F)(F)F)c2)c(O)c(C(C)(C)C)c1
units_symbol: %
growth: 70.2
--
smiles_repr: COc1ccc2nc(SCC(=O)Nc3ccccc3C)[nH]c2c1
units_symbol: %
growth: 97.5
--
smiles_repr: CS(=O)(=O)Nc1cc(-c2ccc3ncnc(Nc4ccc5c(cnn5Cc5cccnc5)c4)c3c2)cnc1Cl
units_symbol: %
growth: 57.7
--
smiles_repr: CN1CCN(CCCOc2ccc3ncnc(Nc4ccc(Oc5cccc(F)c5)c(Cl)c4)c3c2)CC1
units_symbol: %
growth: -30

----------
tested on: DU-145 prostate; assay: NCI-60 one-dose screen, 48 h; conditions: 10 µM unless noted
This is part of a sample that, as a whole, favours compounds with a hit. Of some 83,000 tested, about 20% had one in any assay. Calls of active or inactive are those of the source. Rule for the calls: active = growth percent below 10; inactive = the rest.
Outcome codes: active, inactive

molecule: CC1COCC(C)N1C1=C(Cl)C(=O)c2ccccc2C1=O (stereo not given)
tested_on: DU-145 prostate
label: inactive
--
molecule: COc1cc(-c2nc3occn3c2-c2ccnc(NCCCNS(=O)(=O)c3ccccc3)n2)ccc1F
tested_on: DU-145 prostate
label: inactive
--
molecule: CCCCCCCCCCCCCCCCCCOc1ccccc1CC(=O)NCC[N+]1(C)CCOCC1
tested_on: DU-145 prostate
label: inactive
--
molecule: CCN1C(=O)N(CC)C2C1NN=c1s/c(=C3\C(=O)N(CCc4ccccc4)c4ccccc43)c(=O)n12 (stereo not given)
tested_on: DU-145 prostate
label: active
--
molecule: O=C1NC(=O)c2c1c1c3ccccc3[nH]c1c1oc3cc(Br)ccc3c21
tested_on: DU-145 prostate
label: inactive
